Recorded values, source the RNAGym collection of RNA variant scans (doi:10.7554/elife.80360).

B1: Twister Ribozyme (parent)
chain: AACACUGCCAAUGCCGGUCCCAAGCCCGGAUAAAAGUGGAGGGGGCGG

- Variants of: B1
- assay: self-cleavage, relative activity (ratio to wild type); higher = more cleavage; co-transcriptional
experimental.endpoint: self-cleavage
Simply state the number, no unit and no words.

1. U6G A10C    0.136
2. C8G G42U    0.147

Recorded result, G29U G48A , self-cleavage: 0.905

For this variant ( G13A G36A ), measured self-cleavage is 0.162

C20A G45A has a reported self-cleavage of 0.144

Form: variant = C20U U31C ; self-cleavage = 1.03

Reported self-cleavage ( C3U A11U ) = 0.428

Measured self-cleavage of G24C C26U : 0.126

A35G G43A yielded self-cleavage of 0.152

The recorded self-cleavage for entry A30C U31A equals 0.687

self-cleavage reported for this variant G42C G43A : 0.139

self-cleavage measured on U6G G13U = 0.0456

C27A G44A yielded self-cleavage of 0.648

self-cleavage reported for this variant A4C U37A : 0.766

So for G29A A40C , the logged self-cleavage turned out to be 0.176

Record C9A C21A , field self-cleavage: 0.0865

Recorded self-cleavage (variant A4C G13C ): 0.0474

self-cleavage in this record for C8U A33U : 0.531

Query C15G G44A yields self-cleavage of 0.0802

Reported self-cleavage ( A22G G24A ) = 0.114
